The values you see were collected from ChEMBL document CHEMBL1132471.

Experiment: Affinity for Vancomycin (Exp II)
Task for the reader: assign each of the following molecules its reported Affinity.
One number for each entry, in M⁻¹.

Below are 4 molecules. Give each one its Affinity.
1. CC(=O)N[C@H](C)C(=O)O
2. C[C@@H](O)C(=O)O
3. CC(=O)O
4. CC(=O)NCC(=O)O

Solution:
300
80
30
80
